Ref: ChEMBL document CHEMBL5154813

# reported Emax; entries follow
# TESTED_SYSTEM: Peroxisome proliferator-activated receptor alpha (Homo sapiens)
# ASSAY: Agonist activity at yeast Gal4-fused human PPARalpha LBD transfected in human HepG2 cells assessed as transactivation by measuring beta-galactosidase activity incubated for 20 hrs by luminometry relative to control
# Type: cell-based
# COND: filed as agonist
Numbers only here, please. The scale is %.

Please review the following examples before continuing.
compound=CC(C)(C)OC(=O)N[C@@H](CSCc1ccc(C(=O)c2ccccc2)cc1)C(=O)O measured_attribute=Emax unit_spec=% val=108
compound="O=C(Cc1ccccc1)NC(CSCc1ccccc1)C(=O)O (stereo not given)" measured_attribute=Emax unit_spec=% val=148
compound="Cc1ccc(C(=O)c2ccc(CSCC(NC(=O)OC(C)(C)C)C(=O)O)cc2)cc1 (stereo not given)" measured_attribute=Emax unit_spec=% val=89

Prompt line: Would you kindly share the measured Emax for CC(C)(C)OC(=O)NC(CSCc1ccc(C(=O)c2ccc(Cl)cc2)cc1)C(=O)O (stereo not given) ?
Response line: 95

Prompt line: Would you kindly share the measured Emax for CC(C)(C)OC(=O)NC(COCc1ccc(C(=O)c2ccccc2)cc1)C(=O)O (stereo not given) ?
Response line: 49
